biological target: somatostatin receptor type 2 (SSTR2) (UniProt P30874 1-369); assay: cell-based or functional assay
Sequence (P30874 whole entry): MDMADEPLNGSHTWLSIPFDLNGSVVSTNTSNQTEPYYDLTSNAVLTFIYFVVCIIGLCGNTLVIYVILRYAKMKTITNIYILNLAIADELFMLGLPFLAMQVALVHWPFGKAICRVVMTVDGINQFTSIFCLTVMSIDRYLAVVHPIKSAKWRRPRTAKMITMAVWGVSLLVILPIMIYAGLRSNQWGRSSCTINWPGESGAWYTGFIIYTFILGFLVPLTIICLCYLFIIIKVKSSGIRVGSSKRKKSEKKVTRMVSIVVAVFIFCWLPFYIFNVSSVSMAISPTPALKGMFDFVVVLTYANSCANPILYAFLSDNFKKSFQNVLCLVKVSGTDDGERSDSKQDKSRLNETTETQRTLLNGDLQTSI
Starred links: 1 amine or outer side, 2 acyl side, 3 side chain; linkers in the order of their positions; H or OH if unused. Positions of bridges follow the written chain, without caps; N, C: chain ends. Non-standard residues stand in square brackets, D forms with d. thiocarbamate = -NH-(C=O)-S- bridge between side chains (disulfide isostere); Tyr(Me) = 4-OMe-Phe, COc1ccc(C[C@H](N[*:1])C(=O)[*:2])cc1; dPhe(4-CONH2) = NC(=O)c1ccc(C[C@@H](N)C(=O)O)cc1; dTyr(Me) = COc1ccc(C[C@@H](N[*:1])C(=O)[*:2])cc1; Phe(4-Cl) = N[C@@H](Cc1ccc(Cl)cc1)C(=O)O; dPhe(4-Cl) = N[C@H](Cc1ccc(Cl)cc1)C(=O)O; dDap = NC[C@@H](N)C(=O)O; Dap = NC[C@H](N)C(=O)O
# IC50 (PathHunter β-Arrestin, antagonist mode) binned as zone 1: < 10 nM; zone 2: ≥ 10 nM and < 30 nM; zone 3: ≥ 30 nM

Illustrative cases are given below, each with its answer.
Ac-G[Phe(4-Cl)][dC]Y[dPhe(4-CONH2)]K(Me)TC[dY]-NH2 (disulfide 3-8; SMILES CNCCCC[C@@H]1NC(=O)[C@@H](Cc2ccc(C(N)=O)cc2)NC(=O)[C@H](Cc2ccc(O)cc2)NC(=O)[C@H](NC(=O)[C@H](Cc2ccc(Cl)cc2)NC(=O)CNC(C)=O)CSSC[C@@H](C(=O)N[C@H](Cc2ccc(O)cc2)C(N)=O)NC(=O)[C@H]([C@@H](C)O)NC1=O) [Compound 55: Ac-Gly-Cpa-cyclo[D-Cys-Tyr-D-Phe(4-carbamoyl)-Lys(Nε-Me)-Thr-Cys]-D-Tyr-NH2] :: zone 1
H-[Phe(4-Cl)][dC][Tyr(Me)][dPhe(4-CONH2)]KTC[dTyr(Me)]-NH2 (disulfide 2-7; SMILES COc1ccc(C[C@@H]2NC(=O)[C@H](NC(=O)[C@@H](N)Cc3ccc(Cl)cc3)CSSC[C@@H](C(=O)N[C@H](Cc3ccc(OC)cc3)C(N)=O)NC(=O)[C@H]([C@@H](C)O)NC(=O)[C@H](CCCCN)NC(=O)[C@@H](Cc3ccc(C(N)=O)cc3)NC2=O)cc1) [Compound 45: H-Cpa-cyclo[DCys-4-OMe-Phe-D-(4-carbamoyl)Phe-Lys-Thr-Cys]-4-OMe-D-Phe-NH2] :: zone 2
H-[Phe(4-Cl)][dC]Y[dAph(Asp)]KTC[dY]-NH2 (disulfide 2-7) [Compound 18: H-Cpa-cyclo[DCys-Tyr-D-4-(Asp)Aph-Lys-Thr-Cys]-DTyr-NH2] :: zone 3

Exam item: Form: Item = H-[Phe(4-Cl)][dC]Y[dPhe(4-CONH2)]K(Me)T[Dap][dY]-NH2 (bridge 2-7 via thiocarbamate) [Compound 63: H-Cpa-cyclo[DCys-Tyr-DPhe(4-CONH2)-Lys(Me)-Thr-Dap]-DTyr-NH2] ; Class = ?
Marked response: zone 3

Exam item: Form: Item = H-[Phe(4-Cl)][dC]Y[dAph(Cit)]KTC[dY]-NH2 (disulfide 2-7) [Compound 22: H-Cpa-cyclo[DCys-Tyr-D-4-(Cit)Aph-Lys-Thr-Cys]-DTyr-NH2] ; Class = ?
Marked response: zone 3

Exam item: Form: Item = XXYXKXCX (HELM PEPTIDE1{[N[C@@H](Cc1ccc(Cl)cc1)C(=O)[*:2]].[dC].Y.[NC(=O)c1ccc(C[C@@H](N[*:1])C(=O)[*:2])cc1].K.[meT].C.[dY].[am]}$PEPTIDE1,PEPTIDE1,2:R3-7:R3$$$V2.0; SMILES C[C@@H](O)[C@H]1C(=O)N[C@H](C(=O)N[C@H](Cc2ccc(O)cc2)C(N)=O)CSSC[C@@H](NC(=O)[C@@H](N)Cc2ccc(Cl)cc2)C(=O)N[C@@H](Cc2ccc(O)cc2)C(=O)N[C@H](Cc2ccc(C(N)=O)cc2)C(=O)N[C@@H](CCCCN)C(=O)N1C) [Compound 73: H-Cpa-[DCys-Tyr-DPhe(4-carbamoyl)-Lys-NMeThr-Cys]-DTyr-NH2] ; Class = ?
Marked response: zone 3

Exam item: Form: Item = H-[Phe(4-Cl)][dC][Phe(4-Cl)][dPhe(4-CONH2)]KTC[dPhe(4-Cl)]-NH2 (disulfide 2-7; SMILES C[C@@H](O)[C@@H]1NC(=O)[C@H](CCCCN)NC(=O)[C@@H](Cc2ccc(C(N)=O)cc2)NC(=O)[C@H](Cc2ccc(Cl)cc2)NC(=O)[C@H](NC(=O)[C@@H](N)Cc2ccc(Cl)cc2)CSSC[C@@H](C(=O)N[C@H](Cc2ccc(Cl)cc2)C(N)=O)NC1=O) [Compound 43: H-Cpa-cyclo[DCys-4-Cl-Phe-D-(4-carbamoyl)Phe-Lys-Thr-Cys]-4-Cl-D-Phe-NH2] ; Class = ?
Marked response: zone 2

Exam item: Form: Item = H-[Phe(4-Cl)][dDap]Y[dPhe(4-CONH2)]K(Me)TD[dY]-NH2 (lactam 2-7; not fully specified; printed as H-Cpa-cyclo[DDap-Tyr-DPhe(4-CONH2)-Lys(Me)-Thr-Asp]-DTyr-NH2) [Compound 71: H-Cpa-cyclo[DDap-Tyr-DPhe(4-CONH2)-Lys(Me)-Thr-Asp]-DTyr-NH2] ; Class = ?
Marked response: zone 2

Exam item: Form: Item = XXYXKTCX (HELM PEPTIDE1{[N[C@@H](Cc1ccc(Cl)cc1)C(=O)[*:2]].[dC].Y.[O=C([C@@H](Cc1ccc(NS(=O)(=O)c2ccccc2)cc1)N[*:1])[*:2]].K.T.C.[dY].[am]}$PEPTIDE1,PEPTIDE1,2:R3-7:R3$$$V2.0; SMILES C[C@@H](O)[C@@H]1NC(=O)[C@H](CCCCN)NC(=O)[C@@H](Cc2ccc(NS(=O)(=O)c3ccccc3)cc2)NC(=O)[C@H](Cc2ccc(O)cc2)NC(=O)[C@H](NC(=O)[C@@H](N)Cc2ccc(Cl)cc2)CSSC[C@@H](C(=O)N[C@H](Cc2ccc(O)cc2)C(N)=O)NC1=O) [Compound 14: H-Cpa-cyclo[DCys-Tyr-D-4-(benzenesulfonyl)Aph-Lys-Thr-Cys]-DTyr-NH2] ; Class = ?
Marked response: zone 2

Exam item: Form: Item = XXYXKTCX (HELM PEPTIDE1{[N[C@@H](Cc1ccc(Cl)cc1)C(=O)[*:2]].[dC].Y.[O=C(Nc1ccccc1)Nc1ccc(C[C@@H](N[*:1])C(=O)[*:2])cc1].K.T.C.[dY].[am]}$PEPTIDE1,PEPTIDE1,2:R3-7:R3$$$V2.0; SMILES C[C@@H](O)[C@@H]1NC(=O)[C@H](CCCCN)NC(=O)[C@@H](Cc2ccc(NC(=O)Nc3ccccc3)cc2)NC(=O)[C@H](Cc2ccc(O)cc2)NC(=O)[C@H](NC(=O)[C@@H](N)Cc2ccc(Cl)cc2)CSSC[C@@H](C(=O)N[C@H](Cc2ccc(O)cc2)C(N)=O)NC1=O) [Compound 15: H-Cpa-cyclo[D-Cys-Tyr-D-Phe(4-phenylureido)-Lys-Thr-Cys]-D-Tyr-NH2] ; Class = ?
Marked response: zone 1

The measured values listed here are drawn from patent US20190040102A1.
